Numbers sourced from patent US20210002231A1.

Form: system (NPFF2R (Homo sapiens)), quantity (log10(Ki)), values below.
Starred links: 1 amine or outer side, 2 acyl side, 3 side chain; linkers in the order of their positions; H or OH if unused. Non-standard residues stand in square brackets, D forms with d. Residues, ends and D or L forms follow the SMILES beside them. *: point of attachment. X1 = O=C1[C@@H](N[*:1])Cc2ccccc2CN1CCC(=O)[*:2]; Dmt = Cc1cc(O)cc(C)c1C[C@H](N)C(=O)O; X2 = c1ccc2[nH]c(*)nc2c1; X3 = c1ccc2oc(*)nc2c1; X4 = c1ccc2sc(*)nc2c1
readout type: log10(Ki) (log10 of the value in nM)

>  <molecule>
Cc1cc(O)cc(C)c1C[C@H](N)C(=O)N[C@H](CCCNC(=N)N)C(=O)N[C@H]1Cc2ccccc2CN(CCC(=O)N[C@@H](CCCN2CCCCC2)C(=O)N[C@@H](Cc2ccccc2)C(N)=O)C1=O

>  <test system>
NPFF2R (Homo sapiens)
Sequence (Q9Y5X5 whole entry): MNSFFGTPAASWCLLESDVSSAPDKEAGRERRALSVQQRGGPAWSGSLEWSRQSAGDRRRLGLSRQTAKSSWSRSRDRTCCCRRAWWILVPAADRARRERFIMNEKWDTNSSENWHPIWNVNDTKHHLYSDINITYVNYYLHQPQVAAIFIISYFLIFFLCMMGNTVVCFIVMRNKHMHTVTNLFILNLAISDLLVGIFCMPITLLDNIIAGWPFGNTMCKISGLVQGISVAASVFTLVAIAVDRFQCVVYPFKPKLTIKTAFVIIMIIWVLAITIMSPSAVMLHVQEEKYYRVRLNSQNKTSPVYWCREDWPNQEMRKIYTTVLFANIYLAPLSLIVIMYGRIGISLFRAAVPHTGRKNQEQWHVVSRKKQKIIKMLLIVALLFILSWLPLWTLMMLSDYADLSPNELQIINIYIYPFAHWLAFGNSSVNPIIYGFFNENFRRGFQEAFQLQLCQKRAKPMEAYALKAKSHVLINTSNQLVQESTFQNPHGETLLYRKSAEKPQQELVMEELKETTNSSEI

>  <log10(Ki)>
0.59

$$$$
>  <molecule>
Cc1cc(O)cc(C)c1C[C@H](N)C(=O)N[C@H](CCCNC(=N)N)C(=O)N[C@@H](Cc1ccccc1)C(=O)N[C@@H](CCCN)C(=O)N[C@@H](Cc1ccccc1)C(N)=O [KGFF05, H-Dmt-D-Arg-Phe-Orn-Phe-NH2] (HELM PEPTIDE1{[Cc1cc(O)cc(C)c1C[C@H](N)C(=O)[*:2]].[dR].F.[Orn].F.[am]}$$$$V2.0)

>  <test system>
NPFF2R (Homo sapiens)

>  <log10(Ki)>
2.56

$$$$
>  <molecule>
Cc1cc(O)cc(C)c1C[C@H](N)C(=O)N[C@H](CCCNC(=N)N)C(=O)N[C@H]1Cc2ccccc2CN(CCC(=O)N[C@@H](CCCCNc2nc3ccccc3s2)C(=O)N[C@@H](Cc2ccccc2)C(N)=O)C1=O [KGFF16, H-Dmt-D-Arg-Aba-β-Ala-Lys(Bth)-Phe-NH2] (H-[Dmt][dR][X1]K(X4)F-NH2)

>  <test system>
NPFF2R (Homo sapiens)

>  <log10(Ki)>
1.02

$$$$
>  <molecule>
Cc1cc(O)cc(C)c1C[C@H](N)C(=O)N[C@H](CCCNC(=N)N)C(=O)N[C@H]1Cc2ccccc2CN(CC(=O)N[C@@H](CCCN)C(=O)N[C@@H](Cc2ccccc2)C(N)=O)C1=O

>  <test system>
NPFF2R (Homo sapiens)

>  <log10(Ki)>
1.65

$$$$
>  <molecule>
Cc1cc(O)cc(C)c1C[C@H](N)C(=O)N[C@H](CCCNC(=N)N)C(=O)N[C@H]1Cc2ccccc2CN(CCC(N)=O)C1=O [KGOP01, reference compound]

>  <test system>
NPFF2R (Homo sapiens)

>  <log10(Ki)>
3.65

$$$$
>  <molecule>
Cc1cc(O)cc(C)c1C[C@H](N)C(=O)N[C@@H](CCCN1CCCCC1)C(=O)N[C@@H](Cc1ccccc1)C(N)=O

>  <test system>
NPFF2R (Homo sapiens)

>  <log10(Ki)>
3.32

$$$$
>  <molecule>
Cc1cc(O)cc(C)c1C[C@H](N)C(=O)N[C@H](CCCNC(=N)N)C(=O)N[C@@H](Cc1ccccc1)C(N)=O [KGFF07, H-Dmt-D-Arg-Phe-NH2] (HELM PEPTIDE1{[Cc1cc(O)cc(C)c1C[C@H](N)C(=O)[*:2]].[dR].F.[am]}$$$$V2.0)

>  <test system>
NPFF2R (Homo sapiens)

>  <log10(Ki)>
1.92

$$$$
>  <molecule>
Cc1cc(O)cc(C)c1C[C@H](N)C(=O)N[C@H](CCCNC(=N)N)C(=O)N[C@H]1Cc2ccccc2CN(CC(=O)N[C@@H](CCCNC(=N)N)C(=O)N[C@@H](Cc2ccccc2)C(=O)O)C1=O

>  <test system>
NPFF2R (Homo sapiens)

>  <log10(Ki)>
2.40

$$$$
>  <molecule>
CNC(=O)[C@H](Cc1ccccc1)NC(=O)[C@@H](CCCNC(=N)N)NC(=O)[C@@H](N)Cc1c(C)cc(O)cc1C [KGFF13, H-Dmt-D-Arg-Phe-NHMe] (HELM PEPTIDE1{[Cc1cc(O)cc(C)c1C[C@H](N)C(=O)[*:2]].[dR].F.[CN[*:1]]}$$$$V2.0)

>  <test system>
NPFF2R (Homo sapiens)

>  <log10(Ki)>
2.31

$$$$
>  <molecule>
Cc1cc(O)cc(C)c1C[C@H](N)C(=O)N[C@H](CCCNC(=N)N)C(=O)N[C@H]1Cc2ccccc2CN(CCC(=O)N[C@@H](CCCCNc2nc3ccccc3[nH]2)C(=O)N[C@@H](Cc2ccccc2)C(N)=O)C1=O [KGFF14, H-Dmt-D-Arg-Aba-β-Ala-Lys(Bim)-Phe-NH2] (H-[Dmt][dR][X1]K(X2)F-NH2)

>  <test system>
NPFF2R (Homo sapiens)

>  <log10(Ki)>
0.62

$$$$
>  <molecule>
Cc1cc(O)cc(C)c1C[C@H](N)C(=O)N[C@H](CCCNC(=N)N)C(=O)N[C@H]1Cc2ccccc2CN(CC(=O)N[C@@H](CCCNC(=N)N)C(=O)N[C@@H](Cc2ccccc2)C(N)=O)C1=O

>  <test system>
NPFF2R (Homo sapiens)

>  <log10(Ki)>
0.08

$$$$
>  <molecule>
Cc1cc(O)cc(C)c1C[C@H](N)C(=O)N[C@@H](CCCNC(=N)N)C(=O)N[C@@H](Cc1ccccc1)C(N)=O [KGFF06, H-Dmt-Arg-Phe-NH2] (HELM PEPTIDE1{[Cc1cc(O)cc(C)c1C[C@H](N)C(=O)[*:2]].R.F.[am]}$$$$V2.0)

>  <test system>
NPFF2R (Homo sapiens)

>  <log10(Ki)>
1.20

$$$$
>  <molecule>
Cc1cc(O)cc(C)c1C[C@H](N)C(=O)N[C@H](CCCNC(=N)N)C(=O)N[C@H]1Cc2ccccc2CN(CCC(=O)N[C@@H](CCCCNc2nc3ccccc3o2)C(=O)N[C@@H](Cc2ccccc2)C(N)=O)C1=O [KGFF15, H-Dmt-D-Arg-Aba-β-Ala-Lys(Box)-Phe-NH2] (H-[Dmt][dR][X1]K(X3)F-NH2)

>  <test system>
NPFF2R (Homo sapiens)

>  <log10(Ki)>
0.98

$$$$
>  <molecule>
Cc1cc(O)cc(C)c1C[C@H](N)C(=O)N[C@H](CCCNC(=N)N)C(=O)N[C@H]1Cc2ccccc2CNC1=O

>  <test system>
NPFF2R (Homo sapiens)

>  <log10(Ki)>
2.57

$$$$
>  <molecule>
Cc1cc(O)cc(C)c1C[C@H](N)C(=O)N[C@@H](CCCN1CCC(Cc2ccccc2)CC1)C(=O)N[C@@H](Cc1ccccc1)C(N)=O

>  <test system>
NPFF2R (Homo sapiens)

>  <log10(Ki)>
2.61

$$$$
